Tested on: KM12
Assay: NCI tumour cell line growth inhibition, 48 h
Active and inactive are the calls of the source. Rule as the data show it: active = GI50 up to about 1.1 µM and inactive = higher.
reported_metric: GI50

Cn1c(=O)n2c(-c3ccccc3)c(-c3ccccc3)n2c1=O; > 100 µM (inactive)
O=c1cc(CNC2CCCC2)[nH]c(=O)[nH]1; > 100 µM (inactive)
O=C1NC(=O)C2=C1CCC2O (centres undefined); > 100 µM (inactive)

Exercise: Assign GI50 to the following record: C/C(=C1/N=C(c2ccccc2)OC1=O)c1ccccc1
Key: 61.4 µM (inactive)

###

System: IGROV-1
Assay: NCI tumour cell line growth inhibition, 48 h
Calls of active or inactive are those of the source. Cut-off read from the data, not from the text of the source: active = GI50 up to about 1.1 µM and inactive = higher.
Could you please pick one outcome from this set? active, inactive

These solved cases illustrate the format of a correct answer.
CCOC(=O)/C(=C\c1cn(C(C)=O)c2ccccc12)P(C)(=O)OCC (centres undefined); inactive
Cc1cc(S(=O)(=O)Nc2nc(-c3ccccn3)n[nH]2)c(S)cc1Cl; inactive
CCCCCCCCCCOC1C(C(C)OCCCN(C)C)OC2OC3(CCCCC3)OC21 (centres undefined); inactive

Exercise: Look up the recorded call for CCC12C=CCN3CC[C@]4(C(=C(C(=O)OC)[C@@H]1Nc1ncnc5c1ncn5C1OC(COC(C)=O)C(OC(C)=O)C1OC(C)=O)Nc1ccccc14)C32 (some centres undefined) in this test.
Key: inactive

Exercise: Look up the recorded call for CCOC(=O)c1c(N2CCCC2)ncn(-c2ccccc2)c1=S in this test.
Key: inactive

Exercise: Look up the recorded call for O=[N+]([O-])c1cccc(-c2nc(-c3ccccc3)c(-c3ccccc3)[nH]2)c1 in this test.
Key: inactive

Exercise: Look up the recorded call for Cc1nc(=O)n2c(c1C(=O)Nc1ccc(Cl)cc1)NCCC2 in this test.
Key: inactive

Exercise: Look up the recorded call for Cc1cc(OCc2nn(CN3CCN(C)CC3)c(=S)n2/N=C/c2ccc(-c3ccc(Cl)cc3Cl)o2)ccc1Cl in this test.
Key: inactive

Exercise: Look up the recorded call for C[n+]1ccn2c3nc4ccccc4nc3c([O-])c(C#N)c21 in this test.
Key: inactive

Exercise: Look up the recorded call for O=[N+]([O-])c1cccc(-c2cn3c(n2)Cc2ccccc2C3)c1 in this test.
Key: inactive

Exercise: Look up the recorded call for COc1ccc(Cc2nc3cc(Cl)ccc3o2)cc1 in this test.
Key: inactive

Exercise: Look up the recorded call for CC(=O)Nc1ccc2c3c(cc(O)c2c1)N(C(=O)CCCCCC(=O)N1CC(CCl)c2c1cc(O)c1cc(NC(C)=O)ccc21)CC3CCl (centres undefined) in this test.
Key: active

###

Test system: UACC-62
Assay: NCI tumour cell line growth inhibition, 48 h
Active and inactive are the calls of the source. Cut-off read from the data, not from the text of the source: active = GI50 up to about 1.1 µM and inactive = higher.
Could you please pick one outcome from this set? active, inactive

These solved cases illustrate the format of a correct answer.
NC(=O)c1csc(C2OC(CO)C(O)C2O)n1 (centres undefined); inactive
O=C(OC1C#CCSCC#C/C=C\1)c1ccc2c(c1)C(=O)c1ccccc1C2=O (centres undefined); inactive
Cc1nc(O)nc(N/N=C/c2ccc(Cl)cc2)c1C(=O)NC(C)(CO)CO; inactive
CC(=O)N1C(=O)c2cc3ccccc3cc21; inactive
Cn1c(=O)c2nc(-c3ccc(Cl)cc3)oc2n(C)c1=O; inactive

Exercise: Look up the recorded call for CC(=O)NC1=CC(=O)C=C(Cl)C1=O in this test.
Key: inactive

Exercise: Look up the recorded call for C=C1CC(OC)(C(O)C(=O)N[C@H]2OCO[C@H]3C2O[C@H](C[C@H](O)COC)C(C)(C)C3OC)O[C@H](C)[C@@H]1C (some centres undefined) in this test.
Key: active

Exercise: Look up the recorded call for COc1ccc(OC)c2c(C(C)=O)cccc12 in this test.
Key: inactive

Exercise: Look up the recorded call for CSc1ccc(OCC2OC2O)cc1 (centres undefined) in this test.
Key: inactive

Exercise: Look up the recorded call for Cc1cc(C)n(C2OC(CO)C(O)C(O)C2O)c(=S)c1C#N (centres undefined) in this test.
Key: inactive

Exercise: Look up the recorded call for Cc1ccc(/C=N/n2c(=O)[nH]c3ccccc3c2=O)cc1 in this test.
Key: inactive

Exercise: Look up the recorded call for COc1cccc(NC(=O)CC(=O)n2nc(C)c(/N=N/c3ccccc3)c2C)c1 in this test.
Key: inactive

Exercise: Look up the recorded call for COc1cc(OC)cc(-c2cc(=O)c3c(OC)c(OC)c(OC)c(OC)c3o2)c1 in this test.
Key: inactive

Exercise: Look up the recorded call for CCN(CC)CCCNc1n[n+]([O-])c2ccccc2[n+]1[O-] in this test.
Key: inactive
